Entry source: the SangsterLogP compilation

Please respond with reported logP for every item in the list.
The answer should be a number; do not append a unit.

The reported value for O=C(O)CCCCO/N=C(/c1ccccc1)c1cnccn1 in terms of logP is -0.23

The reported value for O=C(O)CCCCCO/N=C(/c1ccccc1)c1ccnnc1 in terms of logP is 0.1

The reported value for O=C(O)CCCCO/N=C(/c1ccccc1)c1cccnn1 in terms of logP is 0

The reported value for O=C(O)CCCCO/N=C(/c1ccccc1)c1ccnnc1 in terms of logP is -0.33

The reported value for O=C(O)CCCO/N=C(/c1ccccc1)c1cccnn1 in terms of logP is -0.27

The reported value for O=C(O)CCCCCON=C(c1ccccc1)c1cnccn1 in terms of logP is 0.23

The reported value for O=C(O)CCCO/N=C(/c1ccccc1)c1cnccn1 in terms of logP is -0.53

The reported value for O=C(O)CCCO/N=C(\c1ccccc1)c1ccnnc1 in terms of logP is -0.4

The reported value for O=C(O)CCCCCO/N=C(/c1ccccc1)c1cccnn1 in terms of logP is -0.01
